Origin of the recorded values: PubChem BioAssay AID1845205

Test system: MPNST multicellular tumor spheroids, viability % test/control
Assay: Anticancer human tumor MPNST cell line growth inhibition;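 also: luminescence signal used as surrogate for viable cell amount; spheroids exposed to agents for seven days after three days of growth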
Details: second compound 1 µM; first compound 1 µM; active compounds read low
Each entry below carries its reported viability, T/C.
Your answer should be a plain number; it is taken to be in %.

Consider the reported viability, T/C for these compounds:
1. [2H]c1nc(C)nc([2H])c1-c1cc(NC[C@@H](C)c2cccc3c(C(=O)NC)ccnc23)ncn1 + Cn1nnc2c(C(N)=O)ncn2c1=O ... 101
2. COc1cc(C)[nH]c(=O)c1CN1CCc2c(Cl)cc(C(OC)C3COC3)c(Cl)c2C1=O (stereo unspecified) + Cn1nnc2c(C(N)=O)ncn2c1=O ... 88.5
3. Cc1cc(C)c(CNC(=O)c2cc(-c3ccc(CN4CCOCC4)cc3)cc3c2cnn3C2CCCC2)c(=O)[nH]1 + Cn1nnc2c(C(N)=O)ncn2c1=O ... 92.7
4. CC(C)n1c(=O)n(C)c2cnc3cc(F)c(-c4ccc(OCCCN5CCCCC5)nc4)cc3c21 + Cn1nnc2c(C(N)=O)ncn2c1=O ... 77.9
5. CC1COCCN1c1cc(-c2ccnn2C)c2ccnc(-c3ccn[nH]3)c2n1 (stereo unspecified) + Cn1nnc2c(C(N)=O)ncn2c1=O ... 39.7

Next up:
INPUT: Check the records and state viability, T/C for COc1ccc([C@@H](O)c2cc(-c3ncnc4cc(N5CCOCC5)ccc34)c(F)cc2Cl)nn1 + Cn1nnc2c(C(N)=O)ncn2c1=O
OUTPUT: 59
